Test system: Escherichia coli TOP10;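 further: peptides expressed intracellularly from a pBAD plasmid library in pooled LB shake-flask culture, induced with 0.3% L-arabinose, DNA abundance read by NGS, three biological replicates, DESeq2 with apeglm shrinkage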
ASSAY_EXPLANATION: shrunken log2 fold change of peptide-encoding DNA abundance (4.5 h post-induction vs induction); higher = less antimicrobial activity (less host growth inhibition)
EXPERIMENTAL_CONTEXT: time post-induction: 4.5 h; library: site-saturation at positions 5, 18, 19, 20
Measured shrunken log2 fold change of individual entries
Give your answer as a number; write no unit.

Consider the reported shrunken log2 fold change for these sequences:
INPUT: Need shrunken log2 fold change, item RRIRFRPPRLPRPRPRPGQKPRP
OUTPUT: -0.0331

INPUT: Need shrunken log2 fold change, item RRIRGRPPRLPRPRPRPYDQPRP
OUTPUT: 0.0878

INPUT: Need shrunken log2 fold change, item RRIRHRPPRLPRPRPRPIYRPRP
OUTPUT: -0.111

INPUT: Need shrunken log2 fold change, item RRIRRRPPRLPRPRPRPISNPRP
OUTPUT: -0.269

INPUT: Need shrunken log2 fold change, item RRIRERPPRLPRPRPRPALTPRP
OUTPUT: 0.131

INPUT: Need shrunken log2 fold change, item RRIRCRPPRLPRPRPRPYQCPRP
OUTPUT: -0.133

INPUT: Need shrunken log2 fold change, item RRIRVRPPRLPRPRPRPAEAPRP
OUTPUT: 0.729

Then this sequence:
INPUT: Need shrunken log2 fold change, item RRIRARPPRLPRPRPRPSAQPRP
OUTPUT: 0.96
